Experimental Target: UniProtKB P08684
Sequence (P08684 2-503): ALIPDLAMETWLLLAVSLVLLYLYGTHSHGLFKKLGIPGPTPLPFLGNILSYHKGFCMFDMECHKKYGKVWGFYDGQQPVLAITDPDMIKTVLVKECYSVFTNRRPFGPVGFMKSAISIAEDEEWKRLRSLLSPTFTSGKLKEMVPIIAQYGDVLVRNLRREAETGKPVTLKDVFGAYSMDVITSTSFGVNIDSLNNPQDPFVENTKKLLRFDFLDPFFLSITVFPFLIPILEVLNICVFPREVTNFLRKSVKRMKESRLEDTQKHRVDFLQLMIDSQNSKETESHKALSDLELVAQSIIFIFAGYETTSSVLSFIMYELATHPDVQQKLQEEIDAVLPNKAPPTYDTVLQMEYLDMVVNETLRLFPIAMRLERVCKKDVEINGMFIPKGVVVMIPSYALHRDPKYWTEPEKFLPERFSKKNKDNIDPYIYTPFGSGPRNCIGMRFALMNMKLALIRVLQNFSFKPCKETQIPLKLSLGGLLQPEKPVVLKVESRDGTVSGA
Run Description: CYP3A4 inhibition, method not given
Type: biochemical
pIC50: −log10 of the molar value.
Metric: pIC50

Hi! What's the reported pIC50 for "N=C(N)SCc1ccccc1Oc1ccc(-c2ccc(Oc3ccccc3CSC(=N)N)c(CSC(=N)N)c2)cc1CSC(=N)N" on UniProtKB P08684?
> 6.00
